Values were extracted from patent EP4714976A1.

# maps each entry to its OD (450 nm) value
- target: extracellular domain of FGFR2c protein (Example 1) (UniProt P21802)
- Sequence (P21802 22-377): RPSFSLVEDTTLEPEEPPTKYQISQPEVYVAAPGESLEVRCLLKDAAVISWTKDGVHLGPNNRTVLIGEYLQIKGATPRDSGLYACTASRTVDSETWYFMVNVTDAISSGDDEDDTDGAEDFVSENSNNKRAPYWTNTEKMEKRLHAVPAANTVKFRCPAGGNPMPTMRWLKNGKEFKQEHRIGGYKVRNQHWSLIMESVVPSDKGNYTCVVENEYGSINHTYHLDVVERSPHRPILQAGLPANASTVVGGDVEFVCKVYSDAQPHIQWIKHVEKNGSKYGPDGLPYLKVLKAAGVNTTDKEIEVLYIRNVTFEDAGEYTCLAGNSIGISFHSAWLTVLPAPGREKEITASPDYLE
- assay: phage ELISA
reported_metric: OD (450 nm) value

{"binder": "3H9 scFv displayed on phage (scFv) scFv: EIQLQQSGAELVKPGASVKMSCKASGYTFSFYNMHWVKRTPGQGLEWIGLIYPDNGDTSYNQKFKGKATLTADTSSSTAYMQLSSLTSEDSAVYYCARGGLDYWGQGTTLTVSSGGGGSGGGGSGGGGSDIVLTQSPASLSVSVGETVTITCRASENIYSNLAWYQQKQGKSPQLLVYAATNLADGVPSRFSGSGSGTQYSLKINSLQSEDFGSYYCQHFWGTPYTFGGGTKLELK", "reported_metric": "OD (450 nm) value", "assay_value": 0.073}
{"binder": "3A12 scFv displayed on phage (scFv) scFv: EVQLQQSGAELVKPGASVKMSCKASGYTFSFYNVHWVRQTPGQGLEWIGLIYPDNGDTSYNQKFKAKATLTADKSSSAAYMQLSSLTSEDSAVYYCARGGFDYWGQGTSLTVSSGGGGSGGGGSGGGGSDIVMTQSHKFMSTSVGDRVNITCKASQDVSTAVAWYQQKPGQSPKLLIYSASYRYSGVPDRFTGSGSGTDFTFTISSVQAEDLAVYYCQQHYSTPYTFGGGTKLEMK", "reported_metric": "OD (450 nm) value", "assay_value": 0.1}
{"binder": "1C10 scFv displayed on phage (scFv) scFv: QVQLQQSGAELVKPGASVKMSCKASGYTFRYYNMHWVKRTPGQGLEWIGLIYPDNGDTSYNQKFKGKATLTADTSSSTAYMQLSSLTSEDSAVYYCARGGLDYWGQGTSLTVSSGGGGSGGGGSGGGGSDIVMTQSPASLSASVGETVTITCRASGNIHNYLAWYQQKQGKSPQLLVYNAKTLADGVPSRFSGSGSGTQYSLKINSLQPEDFGSYYCQHFWSTPYTFGGGTKLEMK", "reported_metric": "OD (450 nm) value", "assay_value": 0.068}
